- Test system: TGF-β-stimulated SMAD3 phosphorylation in BEAS-2B cells
- assay_remarks: Cellular ALK5 potency assay, inhibition of TGF-β stimulated pSMAD3 formation in BEAS-2B cells
- Type: cell-based
- test_settings: Homo sapiens, pSMAD3, TGF-β 10 ng/mL, read-out: BEAS2B pIC50 (converted)
quantity_kind: IC50

Previously resolved entries follow.
* CNC(=O)Cc1cc(Nc2ccnc(Nc3ccc(N4CCNCC4)cc3)n2)nc(-c2cccc(C)n2)n1 | 200 to 1260 nM
* Cc1cccc(-c2nccc(Nc3ccnc(Nc4ccc(C(=O)OC[C@@H]5CCNC5)nc4)n3)n2)n1 | 25.1 to 158 nM
* Cc1cccc(-c2nc(CC(=O)NCC(C)C)cc(Nc3ccnc(Nc4ccc(N5CCNCC5)cc4)n3)n2)n1 | 200 to 1260 nM
* Cc1cccc(-c2nccc(Nc3ccnc(Nc4ccc(CN5CCC(C(=O)OC6CNC6)CC5)cc4)n3)n2)n1 | 25.1 to 158 nM
* Cc1cccc(-c2nccc(Nc3ccnc(Nc4ccc(CN5CCOCC5)c(F)c4)n3)n2)n1 | 25.1 to 158 nM

Problem: Item Cc1cccc(-c2nccc(Nc3ccnc(Nc4ccc(NS(=O)(=O)C5CNC5)cc4)n3)n2)n1 has what recorded IC50?
Solution: 200 to 1260 nM

Problem: Item Cc1cccc(-c2nccc(Nc3ccnc(Nc4ccc(S(=O)(=O)N5CCN(C)CC5)cc4)n3)n2)n1 has what recorded IC50?
Solution: 25.1 to 158 nM

Problem: Item CCC(C)OC(=O)C1CNCCN1c1ccc(Nc2nccc(Nc3ccnc(-c4cccc(C)n4)n3)n2)cc1 (racemic) has what recorded IC50?
Solution: 25.1 to 158 nM

Problem: Item Cc1cccc(-c2nccc(Nc3ccnc(Nc4cccc(NC(=O)C5CCN(C6CCN(C)CC6)CC5)c4)n3)n2)n1 has what recorded IC50?
Solution: 25.1 to 158 nM

Problem: Item Cc1cccc(-c2nccc(Nc3ccnc(Nc4ccc(C(=O)O[C@H]5CCN(C)C5)cc4)n3)n2)n1 has what recorded IC50?
Solution: 25.1 to 158 nM

Where do the numbers come from? From patent US20230399312A1.
